system: ZR-75-1 cells; test: Caspase cascade activation assay (N-(Ac-DEVD)-N'-ethoxycarbonyl-R110 fluorogenic substrate) in ZR-75-1; format: cell-based, Human; details: ratio of net RFU of test compound to control, 24 h incubation
Returns t if the recorded Caspase activity Ratio is greater than or equal to 5, and f otherwise.

INSERT INTO assay_data (compound, target_or_test_system, label_class) VALUES
  ('COc1cc(C2C3=CC=C4N=CC=C4C3OC(N)=C2C#N)cc(OC)c1OC (centres unmarked)', 'ZR-75-1 cells', 'f'),
  ('COc1cc(C2C(C#N)=C(N)Oc3c2ccc2ccccc32)cc(Br)c1OC (centres unmarked)', 'ZR-75-1 cells', 'f'),
  ('COc1cc(C2C(C#N)=C(N)Oc3cc(N(C)C)ccc32)cc2c1OCO2 (centres unmarked)', 'ZR-75-1 cells', 't'),
  ('CN(C)c1ccc2c(c1)OC(N)=C(C#N)C2c1cccc([N+](=O)[O-])c1 (centres unmarked)', 'ZR-75-1 cells', 't'),
  ('COc1cc(C2C3=CC=C4N=CC=C4C3OC(N)=C2C#N)cc2c1OCO2 (centres unmarked)', 'ZR-75-1 cells', 't'),
  ('COc1cc(C2C(C#N)=C(N)Oc3cc4c(cc32)OCO4)cc2c1OCO2 (centres unmarked)', 'ZR-75-1 cells', 't'),
  ('Cc1ccc(C2C(C#N)=C(N)Oc3cc(N(C)C)ccc32)cc1[N+](=O)[O-] (centres unmarked)', 'ZR-75-1 cells', 't'),
  ('CN(C)c1ccc2c(c1)OC(N)=C(C#N)C2c1ccc2c(c1)OCO2 (centres unmarked)', 'ZR-75-1 cells', 'f');

* * *

system: ZR-75-1 cells; assay: Caspase cascade activation assay (N-(Ac-DEVD)-N'-ethoxycarbonyl-R110 fluorogenic substrate) in ZR-75-1; type: cell-based, Human; details: ratio of net RFU of test compound to control, 24 h incubation
measured-endpoint: Caspase activity Ratio

INSERT INTO assay_data (compound, measured_endpoint, result) VALUES
  ('COc1cc(C2C3=CC=C4N=CC=C4C3OC(N)=C2C#N)cc(Br)c1OC (stereo not drawn)', 'Caspase activity Ratio', 5.0),
  ('COc1cc(Br)c(C2C3=CC=C4N=CC=C4C3OC(N)=C2C#N)cc1OC (stereo not drawn)', 'Caspase activity Ratio', 5.1);
